- Test system: OE33 (Esophageal Adenocarcinoma)
- method.description: Bliss excess, mean over the matrix (fraction); higher = more synergy
reported.metric: Bliss excess
The answer should be a number; do not append a unit.

Cc1c2c(nn1C)CSCc1cc(n(C)n1)CSc1cc(c3ccccc3c1)OCCCc1c(C(=O)O)n(C)c3c-2c(Cl)ccc13 [AZD5991] + C1CN(CCC1(C(=O)N[C@@H](CCO)C2=CC=C(C=C2)Cl)N)C3=NC=NC4=C3C=CN4 [Capivasertib] (first compound max 1 µM, 7x7, partner max 3 µM) | -0.0328
CS(=O)(=O)CCNCc1ccc(-c2ccc3ncnc(Nc4ccc(OCc5cccc(F)c5)c(Cl)c4)c3c2)o1 [Lapatinib] + NC1(c2ccc(-c3nc4ccn5c(=O)[nH]nc5c4cc3-c3ccccc3)cc2)CCC1 [MK-2206] (first compound max 10 µM, 7x7, partner max 10 µM) | -0.0133

With those in mind, consider the next molecule.
Problem: Look up Bliss excess for this molecule: O=C(c1cc(Cc2n[nH]c(=O)c3ccccc23)ccc1F)N1CCN(C(=O)C2CC2)CC1 [Olaparib] + CN(CC[C@H](CSC1=CC=CC=C1)NC2=C(C=C(C=C2)S(=O)(=O)NC(=O)C3=CC=C(C=C3)N4CCC(CC4)[C@H](C5=CC=CC=C5C6=CC=C(C=C6)Cl)O)S(=O)(=O)C(F)(F)F)CCO [AZD4320] (first compound max 10 µM, 7x7, partner max 1 µM)
Result: -0.037

* * *

- Test system: SK-LU-1 (Lung Adenocarcinoma)
- method.description: combination Emax (second highest fraction inhibited in the dose matrix, 72 h); higher = more inhibition; extreme values may be limits of the assay
reported.metric: combination Emax
The answer should be a number; do not append a unit.

Observe how each entry below is paired with its result.
NC1(C(=O)N[C@@H](CCO)c2ccc(Cl)cc2)CCN(c2ncnc3[nH]ccc23)CC1 [Capivasertib] + C[C@@H]1COCCN1C2=NC(=NC(=C2)C3(CC3)[S@](=N)(=O)C)C4=C5C=CNC5=NC=C4 [AZD6738] (first compound max 10 µM, 7x7, partner max 10 µM) | 0.511
CC(=O)c1c(C)c2cnc(Nc3ccc(N4CCNCC4)cn3)nc2n(C2CCCC2)c1=O [Palbociclib] + Cc1c2c(nn1C)CSCc1cc(n(C)n1)CSc1cc(c3ccccc3c1)OCCCc1c(C(=O)O)n(C)c3c-2c(Cl)ccc13 [AZD5991] (first compound max 10 µM, 7x7, partner max 1 µM) | 0.297
CN(CCO)CC[C@H](CSc1ccccc1)Nc1ccc(S(=O)(=O)NC(=O)c2ccc(N3CCC([C@@H](O)c4ccccc4-c4ccc(Cl)cc4)CC3)cc2)cc1S(=O)(=O)C(F)(F)F [AZD4320] + Cc1cc2ncnn2cc1Nc1ncc2c(n1)n(C1CCOCC1)c(=O)n2C [AZD7648] (first compound max 1 µM, 7x7, partner max 10 µM) | 0.421
Cc1nc(Nc2ncc(C(=O)Nc3c(C)cccc3Cl)s2)cc(N2CCN(CCO)CC2)n1 [Dasatinib] + CC(=O)Nc1cccc(-n2c(=O)n(C3CC3)c(=O)c3c(Nc4ccc(I)cc4F)n(C)c(=O)c(C)c32)c1 [Trametinib] (first compound max 2 µM, 7x7, partner max 1 µM) | 0.511

With those in mind, consider the next molecule.
Problem: Look up combination Emax for this molecule: CN(CCO)CC[C@H](CSc1ccccc1)Nc1ccc(S(=O)(=O)NC(=O)c2ccc(N3CCC([C@@H](O)c4ccccc4-c4ccc(Cl)cc4)CC3)cc2)cc1S(=O)(=O)C(F)(F)F [AZD4320] + C1CN(CCC1(C(=O)N[C@@H](CCO)C2=CC=C(C=C2)Cl)N)C3=NC=NC4=C3C=CN4 [Capivasertib] (first compound max 1 µM, 7x7, partner max 3 µM)
Result: 0.267

* * *

- Tested on: NCI-H1993 (Lung Adenocarcinoma)
- method.description: Bliss excess, mean over the matrix (fraction); higher = more synergy
The label depends only on Bliss excess: class 1 if it is at least 0.02, class 0 if it is smaller.

C[C@@H](Nc1cc(F)cc(F)c1)c1cc(C(=O)N(C)C)cc2c(=O)cc(N3CCOCC3)oc12 [AZD8186] + CC(=O)c1c(C)c2cnc(Nc3ccc(N4CCNCC4)cn3)nc2n(C2CCCC2)c1=O [Palbociclib] (first compound max 10 µM, 7x7, partner max 10 µM) | class 1
NC1(C(=O)N[C@@H](CCO)c2ccc(Cl)cc2)CCN(c2ncnc3[nH]ccc23)CC1 [Capivasertib] + COc1nnc2ccc(N3CCC(c4ccc(OCCN5CCN(C)C(=O)[C@H]5C)cc4)CC3)nn12 [AZD5153] (first compound max 10 µM, 7x7, partner max 1 µM) | class 1

Problem: # bool: Bliss excess of C=CCn1c(=O)c2cnc(Nc3ccc(N4CCN(C)CC4)cc3)nc2n1-c1cccc(C(C)(C)O)n1 [AZD1775] + O=C(c1cc(Cc2n[nH]c(=O)c3ccccc23)ccc1F)N1CCN(C(=O)C2CC2)CC1 [Olaparib] (first compound max 1 µM, partner max 10 µM) >= 0.02
Result: class 0

Problem: # repeat for Cc1c2c(nn1C)CSCc1cc(n(C)n1)CSc1cc(c3ccccc3c1)OCCCc1c(C(=O)O)n(C)c3c-2c(Cl)ccc13 [AZD5991] + CN(C)CCCOc1ccc(-c2ccc3ncc4c(c3c2)n(C2CCOCC2)c(=O)n4C)cn1 [AZD0156] (first compound max 1 µM, 7x7, partner max 1 µM)
Result: class 0

Problem: # repeat for C=CCn1c(=O)c2cnc(Nc3ccc(N4CCN(C)CC4)cc3)nc2n1-c1cccc(C(C)(C)O)n1 [AZD1775] + Nc1ccn([C@@H]2O[C@H](CO)[C@@H](O)C2(F)F)c(=O)n1 [Gemcitabine] (first compound max 1 µM, partner max 0.3 µM)
Result: class 0

Problem: # repeat for N#Cc1cnc(Nc2cc(NC[C@H]3CNCCO3)c(C(F)(F)F)cn2)cn1 [SRA737] + CCc1c2c(nc3ccc(O)cc13)-c1cc3c(c(=O)n1C2)COC(=O)[C@]3(O)CC [SN-38] (first compound max 10 µM, 7x7, partner max 0.3 µM)
Result: class 1

Problem: # repeat for COc1cccc(OCCCN)c1-c1cc(Nc2cnc(C#N)cn2)n[nH]1 [Prexasertib] + C[C@@H]1COCCN1C2=NC(=NC(=C2)C3(CC3)[S@](=N)(=O)C)C4=C5C=CNC5=NC=C4 [AZD6738] (first compound max 1 µM, 7x7, partner max 10 µM)
Result: class 0

Problem: # repeat for Cc1c2c(nn1C)CSCc1cc(n(C)n1)CSc1cc(c3ccccc3c1)OCCCc1c(C(=O)O)n(C)c3c-2c(Cl)ccc13 [AZD5991] + C[C@@H](Nc1cc(F)cc(F)c1)c1cc(C(=O)N(C)C)cc2c(=O)cc(N3CCOCC3)oc12 [AZD8186] (first compound max 1 µM, 7x7, partner max 3 µM)
Result: class 1

Problem: # repeat for O=C(c1cc(Cc2n[nH]c(=O)c3ccccc23)ccc1F)N1CCN(C(=O)C2CC2)CC1 [Olaparib] + Cc1c2c(nn1C)CSCc1cc(n(C)n1)CSc1cc(c3ccccc3c1)OCCCc1c(C(=O)O)n(C)c3c-2c(Cl)ccc13 [AZD5991] (first compound max 10 µM, 7x7, partner max 1 µM)
Result: class 0

* * *

- System: HCC2998 (Colorectal Carcinoma)
- method.description: combination Emax (second highest fraction inhibited in the dose matrix, 72 h); higher = more inhibition; extreme values may be limits of the assay
reported.metric: combination Emax
The answer should be a number; do not append a unit.

Observe how each entry below is paired with its result.
CN(C)CCCOc1ccc(-c2ccc3ncc4c(c3c2)n(C2CCOCC2)c(=O)n4C)cn1 [AZD0156] + C=CCn1c(=O)c2cnc(Nc3ccc(N4CCN(C)CC4)cc3)nc2n1-c1cccc(C(C)(C)O)n1 [AZD1775] (first compound max 1 µM, partner max 1 µM) | 0.633
CC1(C)CCC(CN2CCN(c3ccc(C(=O)NS(=O)(=O)c4ccc(NCC5CCOCC5)c([N+](=O)[O-])c4)c(Oc4cnc5[nH]ccc5c4)c3)CC2)=C(c2ccc(Cl)cc2)C1 [Venetoclax] + CN(C)CCCOc1ccc(-c2ccc3ncc4c(c3c2)n(C2CCOCC2)c(=O)n4C)cn1 [AZD0156] (first compound max 1 µM, 7x7, partner max 1 µM) | 0.105
COc1cccc(OCCCN)c1-c1cc(Nc2cnc(C#N)cn2)n[nH]1 [Prexasertib] + CN(C)CCCOc1ccc(-c2ccc3ncc4c(c3c2)n(C2CCOCC2)c(=O)n4C)cn1 [AZD0156] (first compound max 1 µM, 7x7, partner max 1 µM) | 0.969

With those in mind, consider the next compound.
Problem: Look up combination Emax for this compound: Cn1cnc2c(F)c(Nc3ccc(Br)cc3Cl)c(C(=O)NOCCO)cc21 [Selumetinib] + C=CCn1c(=O)c2cnc(Nc3ccc(N4CCN(C)CC4)cc3)nc2n1-c1cccc(C(C)(C)O)n1 [AZD1775] (first compound max 10 µM, partner max 1 µM)
Result: 0.806

Source: the supplement of paper PMC11061612
